test system: RPMI-8226 leukemia; assay: NCI tumour cell line growth inhibition, 48 h
metric name: TGI (µM)
Numeric only. Scale: µM

Examples with answers:
molecule	value units	TGI
O=C(Cc1ccc(Cl)c(Cl)c1)NCCCN1CCN(CCCN2CCCCC2)CC1	µM	16.3
COc1cc2c(cc1O)[C@H](C)C(c1ccc(Cl)cc1)O2 (some centres not stated)	µM	25.6
COc1ccc2c(c1)C(=O)c1c-2c(NCCCN(C)C)nc2ccccc12	µM	4.39

Exercise: Suppose we examine the molecule COc1ccc(-n2sc3ncc(-c4ccccc4)cc3c2=O)cc1 ; what TGI value has been reported?
Solution: 66.8

Exercise: Queued: CC1C(c2ccc(N(C)C)cc2)c2cc3c(cc2OC1N1CCCC1)OCO3 (configuration not stated)
Solution: 97.5

Exercise: Queued: COc1cc(-c2c3c(cn2S(=O)(=O)c2ccccc2)-c2nc(N)sc2CC3)cc(OC)c1OC
Solution: 56
